# Measurement protocol: chemical genetic growth profiling, strain panel (AID 1159580);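 note: tested at 20 µM; growth read once vehicle control cultures reached saturation at 30 °C; 1 = growth at the plate median or of vehicle wells; lower values mean less growth of the strain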
# Condition description: S. cerevisiae deletion strains, growth OD, locus YBR171W, strain sec66
About 2,000 (36%) of roughly 5,500 compounds were called active. About 18% were inconclusive and are not listed. Cut-off read from the data, not from the text of the source: active = normalized growth mostly below about 0.91 (no sharp cut-off); inconclusive = no clear call, values can overlap the other calls; inactive = mostly above about 0.92. The list shows a part of the results.
Labels: yes = active, no = inactive

{"columns": ["Compound", "Classification"],
 "data": [
  ["C[C@@H]1CC[C@H]2[C@@H](C)C(=O)O[C@@H]3O[C@@]4(C)CC[C@@H]1[C@]32OO4", "yes"],
  ["CCOc1ccc2nc3cc(N)ccc3c(N)c2c1", "no"],
  ["N#CC(O[C@@H]1O[C@H](CO[C@@H]2O[C@H](CO)[C@@H](O)[C@H](O)[C@H]2O)[C@@H](O)[C@H](O)[C@H]1O)c1ccccc1 (some centres undefined)", "no"],
  ["CC1OC(=O)C(C(C)C)NC(=O)C(C(C)C)OC(=O)C(C(C)C)NC(=O)C(C)OC(=O)C(C(C)C)NC(=O)C(C(C)C)OC(=O)C(C(C)C)NC(=O)C(C)OC(=O)C(C(C)C)NC(=O)C(C(C)C)OC(=O)C(C(C)C)NC1=O (centres undefined)", "yes"],
  ["NNc1nncc2ccccc12", "no"],
  ["COc1ccc2c3c([nH]c2c1)C(C)=NCC3", "no"],
  ["Nc1c2c(nc3ccccc13)CCCC2O (centres undefined)", "no"],
  ["CCOP(=S)(OCC)Oc1nc(Cl)c(Cl)cc1Cl", "no"],
  ["Nc1c2ccccc2nc2ccccc12 (tested in a mixture with another compound)", "no"]
]}

---

# Measurement protocol: chemical genetic growth profiling, strain panel (AID 1159580);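 note: tested at 20 µM; growth read once vehicle control cultures reached saturation at 30 °C; 1 = growth at the plate median or of vehicle wells; lower values mean less growth of the strain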
# Condition description: S. cerevisiae deletion strains, growth OD, locus YDR297W, strain sur2, hits give low values
Among all 5,500 compounds or so, about 2,000 (36%) were called active. Not shown: some 18% with an inconclusive outcome. This is one part of the list.

{"columns": ["Molecule", "normalized growth"],
 "data": [
  ["CCOC(=O)OC(C)OC(=O)C1N2C(=O)C(NC(=O)[C@H](N)c3ccccc3)C2SC1(C)C (stereo partly specified)", 0.977],
  ["C/C=C(/C)C(=O)O[C@@H]1[C@H](OC(C)=O)[C@@]2(CO)C(CC1(C)C)C1=CCC3[C@@]4(C)CC[C@H](O[C@@H]5O[C@H](C(=O)O)[C@@H](O[C@@H]6O[C@H](CO)[C@@H](O)[C@H](O)[C@H]6O)[C@H](O)[C@H]5O[C@@H]5O[C@H](CO)[C@@H](O)[C@H](O)[C@H]5O)[C@](C)(CO)C4CC[C@@]3(C)[C@]1(C)C[C@H]2O (stereo partly specified)", 0.993],
  ["Clc1ccccc1C(c1ccccc1)(c1ccccc1)n1ccnc1", 0.0578],
  ["COC(=O)C[C@H]1C(C)(C)C2(O)OC34CC2C(=O)[C@]1(C)C3CC[C@]1(C)C4=CC(=O)O[C@H]1c1ccoc1 (stereo partly specified)", 0.994],
  ["C/C=C(/C)C(=O)OC1CCC2(C)C3CCC4C5(O)CC(O)C6(O)C(CN7CC(C)CCC7C6(C)O)C5(O)CC42OC13O (stereo unspecified)", 0.982],
  ["NCCC(=O)N[C@@H](Cc1cnc[nH]1)C(=O)O", 1.01],
  ["O=C(O)CC(O)(CC(=O)O)C(=O)O", 0.994],
  ["C[C@@H]1CC[C@H]2[C@@H](C)C(=O)O[C@@H]3O[C@@]4(C)CC[C@@H]1[C@]32OO4", 0.893],
  ["C[C@@H]1CC[C@]2(C(=O)O)CC[C@]3(C)C(=CCC4[C@@]5(C)CC[C@H](O)C(C)(C)C5CC[C@]43C)C2[C@H]1C (stereo partly specified)", 1],
  ["COc1cccc2c1C(=O)c1c(O)c3c(c(O)c1C2=O)C[C@@](O)(C(C)=O)C[C@@H]3O[C@H]1C[C@H](N)[C@H](O)[C@H](C)O1", 0.967],
  ["NC(N)=N/N=C/c1c(Cl)cccc1Cl", 0.978],
  ["N=C(N)SCCN", 1.01],
  ["CC1(C)CCC2(C(=O)O)CCC3(C)C(=CCC4C5(C)CCC(O)C(C)(C)C5C(O)CC43C)C2C1 (stereo unspecified)", 1.04],
  ["O=C(Nc1ccc(C(=O)O)c(O)c1)c1ccccc1", 0.976],
  ["C[C@@H]1CC[C@H]2[C@@H](C)C(O)O[C@@H]3O[C@@]4(C)CC[C@@H]1[C@]32OO4 (stereo partly specified)", 0.384],
  ["Cc1ccnc(NS(=O)(=O)c2ccc(N)cc2)n1", 1.01],
  ["O=c1[nH]cc(F)c(=O)[nH]1", 0.676],
  ["Cc1ccc(S(=O)(=O)NC(=O)NN2CC3CCCC3C2)cc1 (stereo unspecified)", 0.975],
  ["N=C(N)c1ccc(OCCCCCOc2ccc(C(=N)N)cc2)cc1", 0.958],
  ["FC(F)(F)c1ccccc1-n1ccnc1", 0.995],
  ["CCCOc1ccccc1-c1nc2n[nH]nc2c(=O)[nH]1", 1],
  ["COc1cccc2c1C(=O)c1c(O)c3c(c(O)c1C2=O)C[C@@](O)(C(=O)CO)C[C@@H]3O[C@H]1C[C@H](N)[C@@H](O)[C@H](C)O1", 0.906],
  ["OC(CCN1CCCCC1)(c1ccccc1)C1CCCCC1 (stereo unspecified)", 0.965],
  ["CCCCCCCCCCCCCCC(C(=O)O)C(O)(CC(=O)OC)C(=O)O (stereo unspecified)", 0.994],
  ["COc1ccc2[nH]cc(CCN)c2c1", 0.989],
  ["COc1cccc2c1C(=O)c1c(O)c3c(c(O)c1C2=O)C[C@@](O)(C(=O)CO)C[C@@H]3OC1C[C@H](N)[C@H](O)[C@H](C)O1 (stereo partly specified)", 0.606],
  ["COc1ccc2c(c1)c(CC(=O)O)c(C)n2C(=O)c1ccc(Cl)cc1", 1.01],
  ["CC1(C)CC[C@@]2(C(=O)O)C(C1)C1=CCC3[C@@]4(C)CC[C@H](O)C(C)(C)C4CC[C@@]3(C)[C@]1(C)C[C@@H]2O (stereo partly specified)", 1.01],
  ["CCC(C)C(NC)C(=O)O (stereo unspecified)", 1.01],
  ["C/C=C1\\[C@H]2C=C(C)C[C@]1(N)c1ccc(=O)[nH]c1C2", 1.01],
  ["CC(CC(=O)C1OC1(C)C)C1C(=O)CC2(C)C3=CCC4C(C)(C)C(OC5OCC(O)C(O)C5O)CCC45CC35C(O)CC12C (stereo unspecified)", 1.02],
  ["COC(=O)C[C@H]1C(C)(C)C(=O)[C@@H]2CC3C4=CC(=O)O[C@@H](c5ccoc5)[C@]4(C)CCC3[C@@]1(C)C2=O (stereo partly specified)", 1.05],
  ["C[C@@H]1C(=O)O[C@H]2[C@H]1CC[C@@]1(C)C=CC(=O)[C@@]3(C)O[C@@]213", 1],
  ["C[C@H]1[C@H](C)CC[C@]2(CO)CC[C@]3(C)C(=CCC4[C@@]5(C)CC[C@H](O)C(C)(C)C5CC[C@]43C)[C@H]12 (stereo partly specified)", 1.01],
  ["Cc1cc(C(C)(C)C)c(O)c(C(C)(C)C)c1", 0.983],
  ["Cc1cc(O)cc(C)c1Cl", 0.968]
]}

Source: PubChem BioAssay AID1159580
